Please provide measured MIC grade, A. FLAVUS, YAG media for the entries that follow.
Tested on: Aspergillus flavus
Experiment: Minimum inhibitory concentration, YAG medium
Type: cell-based
Details: banded MIC grade

Input: # lookup: Aspergillus flavus MIC grade, A. FLAVUS, YAG media, key = COc1ccc(CCCOCCC2=NN=C(N)SC2)cc1
Output: 2 (2: 1-5 mg/L)

Input: Return reported MIC grade, A. FLAVUS, YAG media for target or system Aspergillus flavus, item CCCCOC1CCC2=NN=C(N)SC2C1 (stereo not shown) .
Output: 2 (2: 1-5 mg/L)

Input: # return MIC grade, A. FLAVUS, YAG media of NC1=NN=C(CCCCOCc2cccc(CCc3ccccc3)c2)CS1 (system: Aspergillus flavus)
Output: 2 (2: 1-5 mg/L)

Input: Give Aspergillus flavus MIC grade, A. FLAVUS, YAG media for the following molecule: NC1=NN=C(CCCCCOc2ccccc2)CS1
Output: 4 (4: <0.2 mg/L)

Input: Provide measured MIC grade, A. FLAVUS, YAG media on Aspergillus flavus for CCOC(=O)CC1=NN=C(N)SC1 please.
Output: 2 (2: 1-5 mg/L)

Input: Fill: MIC grade, A. FLAVUS, YAG media (Aspergillus flavus) for this molecule NC1=NN=C(CCCCOCc2ccccc2CCc2ccccc2)CS1
Output: 2 (2: 1-5 mg/L)

Input: With Aspergillus flavus as the test system, provide measured MIC grade, A. FLAVUS, YAG media for this molecule: NC1=NN=C(CCCCCCc2ccccc2)CS1
Output: 4 (4: <0.2 mg/L)

Input: Report measured MIC grade, A. FLAVUS, YAG media on Aspergillus flavus; entry: NC1=NN=C(CCCCCC(=O)O)CS1
Output: 2 (2: 1-5 mg/L)

Input: Report value: MIC grade, A. FLAVUS, YAG media, system: Aspergillus flavus, molecule: NC1=NN=C(CCCCCOCc2ccccc2)CS1
Output: 4 (4: <0.2 mg/L)

Input: Recall the reported MIC grade, A. FLAVUS, YAG media of CCCCOCCC1=CNN=C(N)S1 when tested on Aspergillus flavus.
Output: 2 (2: 1-5 mg/L)

Input: Report MIC grade, A. FLAVUS, YAG media under test system Aspergillus flavus for NC1=NN=C2c3ccccc3CCC2S1 (stereo not shown) .
Output: 1 (1: ≥5 mg/L)

Input: Provide MIC grade, A. FLAVUS, YAG media, recorded with Aspergillus flavus, of NC1=NN=C(CCCCOCc2ccc(C(F)(F)F)cc2)CS1
Output: 4 (4: <0.2 mg/L)

Input: Report MIC grade, A. FLAVUS, YAG media from Aspergillus flavus testing of NC1=NN=C(c2cccc(Cl)c2)CS1
Output: 1 (1: ≥5 mg/L)

Just for reference, patent US20180201592A1 is where these values come from.
